The values you see were collected from patent US20110281951A1.

- test system: Aβ(1-40) (Homo sapiens)
- Construct: Prepare a fresh 40 μm solution of Aβ(1-40) in 0.02M Tris, pH 7.4; made in house; host or cells: chemical synthesis (FMOC), HPLC purified
- Sequence (P05067 672-711 limits assumed): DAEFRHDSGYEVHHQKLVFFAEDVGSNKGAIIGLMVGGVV
- test name: Circular dichroism analysis, pre-incubation assay, β-sheet at 218 nm
- Assay type: biochemical
- experimental parameters: 0 h; CD 218 nm; 0.02M Tris pH 7.4
- Procedure: The assay is conducted as follows: Instrument: JASCO J-715 Spectropolarimeter. Cell/cuvette: Hellma quartz (QS) with 1.0 mm pathlength Room temperature. Wavelength interval: 250 nm-190 nm. […] 7. Take the CD spectrum using the parameters above. • Inhibition of Aβ40 assembly/aggregation is determined by comparing the amount of b-sheet structure) appearing at lambda=218 nm) obtained in control and in treated sample at each timepoint.
quantity kind: relative inhibition compared to Aβ alone, incubation time 0 h

NCC(O)CS(=O)(=O)O (centres unmarked) [LVXVI, 3-amino-2-hydroxy-1-propanesulfonic acid]; + (+: 0-25%)
O=C(NCCCS(=O)(=O)O)c1ccccc1 [X, 3-benzoylamino-1-propanesulfonic acid]; + (+: 0-25%)
